Tested on: 5-helix bundle (5HB) protein mimicking hRSV fusion protein F
Experiment: 5HB-based competitive fluorescence polarization (FP) binding assay
Parameters: species or system human respiratory syncytial virus (hRSV)
Details: 200 µM peptide; inhibition of Fl-C35 tracer (5 nM) binding to 5HB (20 nM); FP buffer 20 mM PBS pH 7.4, 500 mM NaCl, 0.01% Tween-20, 0.05 mg/ml bovine gamma globulin; 1 h + 30 min at room temperature; ex 485/em 530 nm
Non-standard residues stand in square brackets, D forms with d. No end group written: not given here. Sar = CNCC(=O)O
METRIC: % Inhibition at 200 µM (%)
Could you give me the number in %? Just the number is fine.

Challenge: What does the data say about its % Inhibition at 200 µM? Entry: ISQANEKINQSLAFIRKSDE [Peptide A4, alanine-substituted C20 peptide]
Response given: 40.00

Challenge: What would you report for ISQVNEKINQSLAFIRKPDE [Peptide P18, proline-substituted C20 peptide] ?
Response given: 0.93

Challenge: What would you report for ISQVNAKINQSLAFIRKSDE [Peptide A6, alanine-substituted C20 peptide] ?
Response given: 89.09

Challenge: What would you report for ISQVNEKINQSLAFI[Sar]KSDE [Sar16, sarcosine-substituted C20 peptide] ?
Response given: 0.00

Challenge: What would you report for ISQVNEKINQSLAF[Sar]RKSDE [Sar15, sarcosine-substituted C20 peptide] ?
Response given: 30.56

Challenge: What would you report for ISQVNEKINQSLAFIR[Sar]SDE [Sar17, sarcosine-substituted C20 peptide] ?
Response given: 84.26

Challenge: What would you report for ISQVNEKINQSLAFIRKSDE [Peptide A13, alanine scan entry for position 13] ?
Response given: 100.00

Challenge: What would you report for IAQVNEKINQSLAFIRKSDE [Peptide A2, alanine-substituted C20 peptide] ?
Response given: 23.63

Challenge: What would you report for ISQVNPKINQSLAFIRKSDE [Peptide P6, proline-substituted C20 peptide] ?
Response given: 26.85

Challenge: What would you report for I[Sar]QVNEKINQSLAFIRKSDE [Sar2, sarcosine-substituted C20 peptide] ?
Response given: 22.22

Challenge: What would you report for ISQV[Sar]EKINQSLAFIRKSDE [Sar5, sarcosine-substituted C20 peptide] ?
Response given: 23.15

Challenge: What would you report for ISQVNEKINQSLAFARKSDE [Peptide A15, alanine-substituted C20 peptide] ?
Response given: 21.36

Challenge: What would you report for ISPVNEKINQSLAFIRKSDE [Peptide P3, proline-substituted C20 peptide] ?
Response given: 14.81

Challenge: What would you report for ISQVNEAINQSLAFIRKSDE [Peptide A7, alanine-substituted C20 peptide] ?
Response given: 100.00

Challenge: What would you report for ISQVNEKINQSLAFIRKSDP [Peptide P20, proline-substituted C20 peptide] ?
Response given: 31.48

Challenge: What would you report for ASQVNEKINQSLAFIRKSDE [Peptide A1, alanine-substituted C20 peptide] ?
Response given: 15.45

Challenge: What would you report for ISQVNEKINQ[Sar]LAFIRKSDE [Sar11, sarcosine-substituted C20 peptide] ?
Response given: 13.89

Challenge: What would you report for ISQVNEKINQSLAFIRKSPE [Peptide P19, proline-substituted C20 peptide] ?
Response given: 84.26

Challenge: What would you report for ISQ[Sar]NEKINQSLAFIRKSDE [Sar4, sarcosine-substituted C20 peptide] ?
Response given: 1.85

Challenge: What would you report for ISQVNEKINQSLPFIRKSDE [Peptide P13, proline-substituted C20 peptide] ?
Response given: 10.19
